system: VIOTR; assay: Pre-emergence herbicidal action against VIOTR; type: in vivo, Viola tricolor; settings: Viola tricolor, 504 h, dosage 320 g/ha
Entries annotated with measured pest or weed control at 320 g/ha
// return numeric value only (unit: %, not printed)

// returns reported pest or weed control at 320 g/ha for input CCCn1nnnc1NC(=O)c1ccc(C(F)(F)F)c(C(=O)NC)c1Cl [Example 3-129]
100

Looking for the measured pest or weed control at 320 g/ha of CCNC(=O)c1c(C(F)(F)F)ccc(C(=O)Nc2nnnn2CC)c1SC [Example 2-82] , can you help?
100

Dear colleague, I am looking for the recorded pest or weed control at 320 g/ha of the following compound: CNC(=O)c1c(C(F)(F)F)ccc(C(=O)Nc2nnc(C)o2)c1SC [Example 6-58]
90

Which value of pest or weed control at 320 g/ha has been reported for CNC(=O)c1c(C(F)(F)F)ccc(C(=O)Nc2nnnn2C)c1SC [Example 1-81] in the records?
100

* * *

test system: AVEFA; experiment: Pre-emergence herbicidal action against AVEFA; type: in vivo, Avena fatua; conditions: 80 g/ha, pre-emergence
// reported Pre-emergence action against AVEFA in % per item
Give a bare numeral; the unit % is implied.

>>> print(df.to_string())
                                   compound                                 property  number
0  CCNC(=O)c1c(C(F)(F)F)ccc(C(=O)Nc2nnc(C)o2)c1CC [Example 6-211]  Pre-emergence action against AVEFA in %      80
1  CCc1c(C(=O)Nc2nnnn2CC)ccc(C(F)(F)F)c1C(=O)NCC(F)F [Example 2-276]  Pre-emergence action against AVEFA in %      90
2  CCn1nnnc1NC(=O)c1ccc(C(F)F)c(C(=O)NCC2CC2)c1C [Example 2-47]  Pre-emergence action against AVEFA in %      80
3  CCc1c(C(=O)Nc2nnnn2C)ccc(C(F)(F)F)c1C(=O)NCC(F)F [Example 1-276]  Pre-emergence action against AVEFA in %      90
4  Cn1nnnc1NC(=O)c1ccc(Br)c(C(=O)NCC(F)F)c1Cl [Example 1-182]  Pre-emergence action against AVEFA in %      90
5  CCn1nnnc1NC(=O)c1ccc(C(F)(F)F)c(C(=O)NCC(F)(F)F)c1C [Example 2-29]  Pre-emergence action against AVEFA in %     100
6  CCn1nnnc1NC(=O)c1ccc(C(F)(F)F)c(C(=O)NC2CCC2)c1C [Example 2-42]  Pre-emergence action against AVEFA in %      90
7  CCNC(=O)c1c(C(F)(F)F)ccc(C(=O)Nc2nnco2)c1Cl [Example 5-117]  Pre-emergence action against AVEFA in %      90

Please report the recorded Pre-emergence action against AVEFA in % for CCn1nnnc1NC(=O)c1ccc(C(F)F)c(C(=O)NCC(F)F)c1C [Example 2-49] .
80

* * *

system: VERPE; assay: Post-emergence herbicidal action against VERPE; assay type: in vivo, Veronica persica; details: Veronica persica, 504 h, 80 g/ha
Reported pest or weed control at 80 g/ha values for the following compounds.
Please give a number only; it is taken to be in %.

In [3]: df
Out[3]:
                                   compound  number
0  CCn1nnnc1NC(=O)c1ccc(C(F)(F)F)c(C(=O)NC)c1SC [Example 2-81]      90

Need pest or weed control at 80 g/ha of CCn1nnnc1NC(=O)c1ccc(C(F)(F)F)c(C(=O)NC(C)=O)c1Cl [Example 2-337] , thanks.
100

Which pest or weed control at 80 g/ha value is on record for CCn1nnnc1NC(=O)c1ccc(C(F)(F)F)c(C(=O)NC)c1Cl [Example 2-129] ?
90

Using the record for CCNC(=O)c1c(C(F)(F)F)ccc(C(=O)Nc2nnnn2CC)c1SC [Example 2-82] , report its pest or weed control at 80 g/ha.
90
